- ASSAYED_TARGET: hGLP-1R (Homo sapiens, UniProt P43220)
- Sequence (P43220 24-463): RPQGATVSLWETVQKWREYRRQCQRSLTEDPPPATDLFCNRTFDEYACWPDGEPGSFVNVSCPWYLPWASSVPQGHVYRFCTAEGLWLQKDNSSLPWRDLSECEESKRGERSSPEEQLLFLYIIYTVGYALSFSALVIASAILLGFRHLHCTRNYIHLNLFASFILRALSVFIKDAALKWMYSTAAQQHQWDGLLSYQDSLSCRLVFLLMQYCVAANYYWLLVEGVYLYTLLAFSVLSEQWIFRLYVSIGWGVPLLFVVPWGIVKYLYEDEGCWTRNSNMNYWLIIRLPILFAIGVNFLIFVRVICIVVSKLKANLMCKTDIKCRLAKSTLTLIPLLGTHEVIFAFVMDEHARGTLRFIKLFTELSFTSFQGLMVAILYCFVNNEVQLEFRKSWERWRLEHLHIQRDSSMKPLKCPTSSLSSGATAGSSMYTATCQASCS
- METHOD_NOTES: Functional cAMP activity in the presence of 1% HSA
- Assay type: cell-based
- CONDITION_SUMMARY: read-out: cAMP Rel EC50, hGLP-1R
Starred links: 1 amine or outer side, 2 acyl side, 3 side chain; linkers in the order of their positions; H or OH if unused. Non-standard residues stand in square brackets, D forms with d. Groups on a side chain read outwards from the residue. No end group written: not given here. *: point of attachment. C20 diacid = O=C(O)CCCCCCCCCCCCCCCCCCC(=O)*; C18 diacid = O=C(O)CCCCCCCCCCCCCCCCC(=O)*; αMePhe(2-F) = C[C@](N)(Cc1ccccc1F)C(=O)O; γGlu = O=C(O)[C@H](CCC(=O)[*:2])N[*:1]; αMe4Pal = C[C@](N)(Cc1ccncc1)C(=O)O; αMeY = C[C@](N)(Cc1ccc(O)cc1)C(=O)O; αMeF = C[C@](N)(Cc1ccccc1)C(=O)O; 4Pal = N[C@@H](Cc1ccncc1)C(=O)O; αMeL = CC(C)C[C@](C)(N)C(=O)O; αMeS = C[C@](N)(CO)C(=O)O; Orn = NCCC[C@H](N)C(=O)O; AEEA = NCCOCCOCC(=O)O; Aib = CC(C)(N)C(=O)O
Define the label as fulfilled when EC50 is strictly less than 0.2 µM and as not fulfilled in all remaining cases.

SUBSTANCE: H-Y[Aib]QGTFTSDYSI[αMeL]LDKQAAK([AEEA-AEEA-γGlu-C20 diacid])QFVEWLIA[Aib]GPSSGEPPPGEG-NH2 [Example 333]
ASSIGNED_CATEGORY: fulfilled
--
SUBSTANCE: H-Y[Aib]QGTFTSDFS[Orn][αMeL]LDKK([AEEA-γGlu-γGlu-C18 diacid])AQ[Aib]AFIEYLLE[Aib]GPSSGAPPPSGS-NH2 [Example 192]
ASSIGNED_CATEGORY: not fulfilled
--
SUBSTANCE: H-Y[Aib]QGT[αMePhe(2-F)]TSD[4Pal][αMeS]I[αMeL]LD[Orn]K([AEEA-AEEA-γGlu-C18 diacid])AQ[Aib][Orn]FI[dE][αMeY]LIEGGPSSGEPPPSEG-NH2 [Example 490]
ASSIGNED_CATEGORY: fulfilled
--
SUBSTANCE: H-Y[Aib]QGTFTSD[4Pal]S[Orn][αMeL]LD[Orn]K([Glu-Glu-γGlu-C18 diacid])AQ[Aib]AFIE[αMeY]LLEGGPSSGAPPPSGSEE-NH2 [Example 1067]
ASSIGNED_CATEGORY: not fulfilled
--
SUBSTANCE: H-Y[Aib]QGTFTSD[4Pal]SQ[αMeL]LD[Orn]K([AEEA-γGlu-C18 diacid])AQ[αMe4Pal]QFIE[αMeY]LIEGGPSSGAPPPSGS-NH2 [Example 857]
ASSIGNED_CATEGORY: fulfilled
--
SUBSTANCE: H-Y[Aib]QGT[αMePhe(2-F)]TSD[4Pal]SI[αMeL]LD[Orn]K([AEEA-γGlu-C18 diacid])AQ[Aib][Orn]FIEYLLEGGPSSGEPPPEEG-NH2 [Example 494]
ASSIGNED_CATEGORY: fulfilled
--
SUBSTANCE: Y[Aib]QGT[αMePhe(2-F)]TSD[4Pal]SI[αMeL]LD[Orn]K([AEEA-γGlu-C18 diacid])AQ[αMe4Pal][Orn]FI[dE][αMeY]LIEGGPSSGAPPPEGGGE-NH2 [Example 758]
ASSIGNED_CATEGORY: fulfilled
--
SUBSTANCE: Y[Aib]QGT[αMePhe(2-F)]TSD[4Pal]SI[αMeL]LD[Orn]K([AEEA-γGlu-C18 diacid])AQ[αMe4Pal][Orn]FI[dE][αMeY]LIEGGPSSGEPPPEGGGE-NH2 [Example 757]
ASSIGNED_CATEGORY: fulfilled
--
SUBSTANCE: H-Y[Aib]QGTFTSD[4Pal]SQ[αMeL]LD[Orn]K([Glu-γGlu-C18 diacid])AQ[αMe4Pal]AFIQ[αMeY]LIEGGPSSGAPPPSGSEEE-NH2 [Example 1077]
ASSIGNED_CATEGORY: not fulfilled
--
SUBSTANCE: H-Y[Aib]QGT[αMeF]TSD[4Pal][αMeS]I[αMeL]LD[Orn]K([γGlu-γGlu-C18 diacid])AQ[αMe4Pal]EFI[dE][αMeY]LIEGGPSSGEPPPSGGGE-NH2 [Example 1175]
ASSIGNED_CATEGORY: fulfilled
--
SUBSTANCE: H-Y[Aib]QGTFTSDFS[Orn][αMeL]LDKK([γGlu-AEEA-γGlu-C18 diacid])AQ[Aib]AFIEYLLE[Aib]GPSSGAPPPSGT-NH2 [Example 276]
ASSIGNED_CATEGORY: fulfilled
--
SUBSTANCE: Y[Aib]QGTFTSD[4Pal]SQ[αMeL]LDKK([AEEA-γGlu-C18 diacid])AQ[Aib]AFIEYLLE[dA]GPSSGAPPPSGS-NH2 [Example 820]
ASSIGNED_CATEGORY: not fulfilled
--
SUBSTANCE: H-Y[Aib]QGTFTSD[4Pal]S[Orn][αMeL]LDKK([AEEA-γGlu-C18 diacid])AQ[αMe4Pal]AFIEYLIE[Aib]GESSGAPPPSGS-NH2 [Example 223]
ASSIGNED_CATEGORY: not fulfilled
--
SUBSTANCE: Y[Aib]QGT[αMePhe(2-F)]TSD[4Pal][αMeS]I[αMeL]LD[Orn]K([γGlu-γGlu-C18 diacid])AQ[Aib][Orn]FI[dE]YLIEGGPSSGEPPPSGTE-NH2 [Example 521]
ASSIGNED_CATEGORY: fulfilled
--
SUBSTANCE: H-Y[Aib]QGT[αMePhe(2-F)]TSD[4Pal][αMeS]I[αMeL]LD[Orn]K([γGlu-γGlu-C18 diacid])AQ[αMe4Pal]EFI[dE][αMeY]LIEGGPSSGAPPPEGTGE-NH2 [Example 764]
ASSIGNED_CATEGORY: fulfilled
--
SUBSTANCE: H-Y[Aib]QGTFTSD[4Pal]SQ[αMeL]LDKK([γGlu-AEEA-γGlu-C18 diacid])AQ[αMe4Pal]AFIEYLIE[Aib]GPSSGAPPPSGS-NH2 [Example 861]
ASSIGNED_CATEGORY: not fulfilled
--
SUBSTANCE: H-Y[Aib]QGTFTSD[4Pal]SQ[αMeL]LDKK([AEEA-γGlu-C18 diacid])AQ[αMe4Pal]AFIEYLIE[Aib]GPSSGAPPPSGT-NH2 [Example 834]
ASSIGNED_CATEGORY: not fulfilled
--
SUBSTANCE: H-Y[Aib]QGTFTSD[4Pal][αMeS]Q[αMeL]LD[Orn]K([dE-γGlu-C18 diacid])AQ[αMe4Pal]QFIE[αMeY]LIE[Aib]GPSSGAPPPSGGGE-NH2 [Example 1187]
ASSIGNED_CATEGORY: fulfilled
--
SUBSTANCE: H-Y[Aib]QGTFTSDFSK[αMeL]LDKK([AEEA-γGlu-C20 diacid])AQ[Aib]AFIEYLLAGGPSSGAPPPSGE-NH2 [Example 11]
ASSIGNED_CATEGORY: not fulfilled
--
SUBSTANCE: H-Y[Aib]QGT[αMePhe(2-F)]TSD[4Pal]SI[αMeL]LD[Orn]K([γGlu-γGlu-C18 diacid])AQ[αMe4Pal][Orn]FI[dE][αMeY]LIEGGPSSGEPPPSGE-NH2 [Example 682]
ASSIGNED_CATEGORY: fulfilled

The reported numbers originate from patent US20240270821A1.
